- System: Kasumi-1 (acute myeloid leukemia, KIT mutation Asn822Lys)
- experiment.description: Calcein AM cytotoxicity assay
- Format: cell-based
- assay.conditions: Homo sapiens; comparative example; Kasumi-1, 72 h; read-out: Influence of compounds on proliferation (72 h), EC50 values (μM) Kasumi-1
- Text: Cytotoxicity of the compounds is the major property determining their anticancer effect in vivo. One of the parameters used, as the basis for cytotoxicity assays, is the integrity of cytoplasmic membrane of viable cells. For example, a microtiter assay, which uses acetomethoxy derivate of calcein (Calcein AM), is widely used for evaluation of cell proliferation and cytotoxicity. This assay is used in drug screening programs and in chemosensitivity testing. […]
readout.name: EC50 (µM)
Just the number in µM, nothing appended.

Q. Determine from records and report EC50 for NC1CCC(Nc2nc(Nc3ccc(CN4CCOCC4)cc3)c3ncn(-c4ccccc4)c3n2)CC1 (stereo not shown) [Phenyl derivative of compound 264, reference compound]
A. 0.722

* * *

- tested.on: FLT3 D835 (Homo sapiens, UniProt P36888)
- experiment.description: Kinase inhibition assay with [γ-33P]ATP
- Type: biochemical
- assay.conditions: AGLT substrate, 1 μM ATP
readout.name: IC50 (µM)
Just the number in µM, nothing appended.

Look over these answered cases.
compound: NCCCCNc1nc(Nc2ccc(N3CC4(COC4)C3)nc2)c2ncn(C3CCCC3)c2n1
measure.unit: µM
numeric.readout: 0.002

compound: NC1CCC(Nc2nc(Nc3ccc(N4CCCC4)cc3)c3ncn(C4CCCC4)c3n2)CC1 (centres unmarked)
measure.unit: µM
numeric.readout: 0.011

compound: NCCNc1nc(Nc2ccc(CN3CCNCC3)cc2)c2ncn(C3CCCC3)c2n1
measure.unit: µM
numeric.readout: 0.01

compound: CN(C)CCNc1nc(Nc2ccc(CN3CCOCC3)nc2)c2ncn(C3CCCC3)c2n1
measure.unit: µM
numeric.readout: 0.005

compound: NC1CCC(Nc2nc(Nc3ccc(CN4CCNCC4)cc3)c3ncn(C4CCCC4)c3n2)CC1 (centres unmarked)
measure.unit: µM
numeric.readout: 0.003

compound: CN1CCN(C(=O)c2ccc(Nc3nc(NC4CCC(N)CC4)nc4c3ncn4C3CCCC3)cc2)CC1 (centres unmarked)
measure.unit: µM
numeric.readout: 0.003

compound: NCCCCNc1nc(Nc2ccc(N3CCOCC3)cc2)c2ncn(C3CCCC3)c2n1
measure.unit: µM
numeric.readout: 0.007

compound: CN1CC2(C1)CN(c1ccc(Nc3nc(NC4CCC(O)CC4)nc4c3ncn4C3CCCC3)cc1)C2 (centres unmarked)
measure.unit: µM
numeric.readout: 0.011

Q. Determine from records and report IC50 for `CCN1CC2(C1)CN(Cc1ccc(Nc3nc(NCCCN)nc4c3ncn4C3CCCC3)cc1)C2`
A. 0.004

Q. Determine from records and report IC50 for `CCN1CCN(c2ccc(Nc3nc(NCCCCN)nc4c3ncn4C3CCCC3)cc2)CC1`
A. 0.003

Q. Determine from records and report IC50 for NC1CCC(Nc2nc(Nc3ccc(N4CCOCC4)cc3)c3ncn(C4CCCC4)c3n2)CC1 (centres unmarked)
A. 0.007

* * *

- tested.on: CDK1/Cyclin B (Homo sapiens, UniProt P06493)
- Construct: made in house; host or cells: Sf9 insect cells, baculoviral infection
- Sequence (P06493 whole entry, species assumed): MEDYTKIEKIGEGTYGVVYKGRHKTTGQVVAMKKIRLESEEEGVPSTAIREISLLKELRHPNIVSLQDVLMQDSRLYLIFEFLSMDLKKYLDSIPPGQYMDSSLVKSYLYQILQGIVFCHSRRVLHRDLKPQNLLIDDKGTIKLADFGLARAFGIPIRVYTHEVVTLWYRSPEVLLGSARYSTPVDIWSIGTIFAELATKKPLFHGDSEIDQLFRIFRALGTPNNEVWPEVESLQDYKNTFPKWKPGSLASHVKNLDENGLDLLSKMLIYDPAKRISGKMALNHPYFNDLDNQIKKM
- Sequence (P14635 whole entry partner, species assumed): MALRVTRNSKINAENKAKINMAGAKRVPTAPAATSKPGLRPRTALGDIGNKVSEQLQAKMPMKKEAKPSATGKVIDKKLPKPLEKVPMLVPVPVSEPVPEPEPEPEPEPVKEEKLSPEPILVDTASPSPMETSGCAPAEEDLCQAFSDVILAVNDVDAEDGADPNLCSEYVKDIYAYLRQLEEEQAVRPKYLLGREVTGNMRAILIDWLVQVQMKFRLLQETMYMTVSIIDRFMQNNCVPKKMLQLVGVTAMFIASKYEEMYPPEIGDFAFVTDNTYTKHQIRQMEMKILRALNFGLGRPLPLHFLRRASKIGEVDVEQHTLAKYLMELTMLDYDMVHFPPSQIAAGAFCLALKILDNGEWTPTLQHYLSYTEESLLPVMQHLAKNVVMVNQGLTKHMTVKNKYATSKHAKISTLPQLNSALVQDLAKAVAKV
- experiment.description: Kinase inhibition assay with [γ-33P]ATP
- Type: biochemical
- assay.conditions: histone H1, 15 μM ATP
Assign classes using reported IC50 values and the ranges group A: < 0.04 µM; group B: ≥ 0.04 µM and < 0.09 µM; group C: ≥ 0.09 µM, please.

compound: CN1CCN(C(=O)c2ccc(Nc3nc(NC4CCC(N)CC4)nc4c3ncn4C3CCCC3)cc2)CC1 (stereo not drawn) [Compound 3]
assigned.category: group A

compound: NCCCCCCNc1nc(Nc2ccc(CN3CCOCC3)cc2)c2ncn(C3CCCC3)c2n1 [Compound 38]
assigned.category: group C

compound: NC1CCC(Nc2nc(Nc3ccc(N4CCCC4)cc3)c3ncn(C4CCCC4)c3n2)CC1 (stereo not drawn) [Compound 263]
assigned.category: group B

compound: NC1CCC(Nc2nc(Nc3ccc(CN4CCNCC4)cc3)c3ncn(C4CCCC4)c3n2)CC1 (stereo not drawn) [Compound 2]
assigned.category: group B

Q. Which IC50 band matches NC1CCC(Nc2nc(Nc3ccc(N4CC5(COC5)C4)cc3)c3ncn(C4CCCC4)c3n2)CC1 (stereo not drawn) [Compound 272] ?
A. group C

Q. Which IC50 band matches CN1CC2(C1)CN(c1ccc(Nc3nc(NC4CCC(O)CC4)nc4c3ncn4C3CCCC3)cc1)C2 (stereo not drawn) [Compound 7] ?
A. group A

Q. Which IC50 band matches NCCCCCNc1nc(Nc2ccc(CN3CCOCC3)cc2)c2ncn(C3CCCC3)c2n1 [Compound 267] ?
A. group C

Q. Which IC50 band matches NCCNc1nc(Nc2ccc(CN3CCNCC3)cc2)c2ncn(C3CCCC3)c2n1 [Compound 14] ?
A. group A

* * *

Listing: IC50 of selected compounds
- tested.on: CDK2/Cyclin E (Homo sapiens)
- Construct: made in house; host or cells: Sf9 insect cells, baculoviral infection
- experiment.description: Kinase inhibition assay with [γ-33P]ATP
- Format: biochemical
- assay.conditions: histone H1, 15 μM ATP; read-out: IC50 values (μM) CDK2

Look over these answered cases.
compound: CN(C)CCCCNc1nc(Nc2ccc(C(=O)N3CCOCC3)cc2)c2ncn(C3CCCC3)c2n1 [Compound 182]
IC50: 0.005 µM
//
compound: CN(C)CCCNc1nc(Nc2ccc(N3CCN(C)CC3)cc2)c2ncn(C3CCCC3)c2n1 [Compound 174]
IC50: 16.4 µM
//
compound: CN(C)CCCNc1nc(Nc2ccc(C(=O)N3CCOCC3)nc2)c2ncn(C3CCCC3)c2n1 [Compound 179]
IC50: 0.04 µM

Q. Find IC50 for NC1CCC(Nc2nc(Nc3ccc(CN4CCNCC4)cc3)c3ncn(C4CCCC4)c3n2)CC1 (stereo not drawn) [Compound 2] on CDK2/Cyclin E (Homo sapiens) and write it down.
A. 0.008 µM

Q. Find IC50 for CCN1CCN(c2ccc(Nc3nc(NCCCCN)nc4c3ncn4C3CCCC3)cc2)CC1 [Compound 266] on CDK2/Cyclin E (Homo sapiens) and write it down.
A. 0.586 µM

Q. Find IC50 for OCCNc1nc(Nc2ccc(CN3CCOCC3)cc2)c2ncn(C3CCCC3)c2n1 [Compound 274] on CDK2/Cyclin E (Homo sapiens) and write it down.
A. 1.17 µM

Q. Find IC50 for CN1CC2(C1)CN(Cc1ccc(Nc3nc(NCC(O)CN)nc4c3ncn4C3CCCC3)cc1)C2 (stereo not drawn) [Compound 199] on CDK2/Cyclin E (Homo sapiens) and write it down.
A. 0.005 µM

Q. Find IC50 for CCN1CCN(C(=O)c2ccc(Nc3nc(NCCCC(N)=O)nc4c3ncn4C3CCCC3)cn2)CC1 [Compound 155] on CDK2/Cyclin E (Homo sapiens) and write it down.
A. 2.6 µM

* * *

- tested.on: CDK5/p35 (Homo sapiens)
- Construct: purchased ProQinase GmbH
- Sequence (Q00535 whole entry): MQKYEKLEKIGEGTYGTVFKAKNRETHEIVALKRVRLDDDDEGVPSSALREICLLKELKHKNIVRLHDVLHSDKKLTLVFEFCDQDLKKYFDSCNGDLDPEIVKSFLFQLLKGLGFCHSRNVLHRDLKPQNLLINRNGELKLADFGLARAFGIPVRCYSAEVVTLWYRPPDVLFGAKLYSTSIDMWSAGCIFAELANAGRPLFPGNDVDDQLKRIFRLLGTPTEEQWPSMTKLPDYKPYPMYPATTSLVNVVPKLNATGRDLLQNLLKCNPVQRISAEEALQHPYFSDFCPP
- Sequence (Q15078 whole entry partner): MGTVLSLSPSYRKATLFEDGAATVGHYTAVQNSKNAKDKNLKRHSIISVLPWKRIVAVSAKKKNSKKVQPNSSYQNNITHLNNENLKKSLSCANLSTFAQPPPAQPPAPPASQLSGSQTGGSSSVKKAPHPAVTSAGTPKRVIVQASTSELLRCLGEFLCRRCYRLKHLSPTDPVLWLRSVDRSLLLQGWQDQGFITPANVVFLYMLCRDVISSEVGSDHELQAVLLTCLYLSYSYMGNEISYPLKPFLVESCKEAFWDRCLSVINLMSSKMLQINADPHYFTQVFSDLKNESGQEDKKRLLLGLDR
- experiment.description: Kinase inhibition assay with [γ-33P]ATP
- Type: biochemical
- assay.conditions: histone H1, 0.15 μM ATP
Listing: IC50 of selected compounds
Just the number in µM, nothing appended.

compound: NC1CCC(Nc2nc(Nc3ccc(CN4CCOCC4)cc3)c3ncn(C4CCCC4)c3n2)CC1 (stereo not drawn)
tested.on: CDK5/p35 (Homo sapiens)
numeric.readout: 0.034

Q. Determine from records and report IC50 for `CCN1CC2(C1)CN(Cc1ccc(Nc3nc(NCCCN)nc4c3ncn4C3CCCC3)cc1)C2`
A. 0.044

Q. Determine from records and report IC50 for CN1CC2(C1)CN(c1ccc(Nc3nc(NC4CCC(O)CC4)nc4c3ncn4C3CCCC3)cc1)C2 (stereo not drawn)
A. 0.03

* * *

- tested.on: FLT3 WT (Homo sapiens, UniProt P36888)
- Construct: purchased ProQinase GmbH
- experiment.description: Kinase inhibition assay with [γ-33P]ATP
- Type: biochemical
- assay.conditions: AGLT substrate, 1 μM ATP
readout.name: IC50 (µM)
Just the number in µM, nothing appended.

Look over these answered cases.
compound: CN1CC2(C1)CN(Cc1ccc(Nc3nc(NCC(O)CN)nc4c3ncn4C3CCCC3)cc1)C2 (stereo not shown) [Compound 199]
IC50 (µM): 0.013

compound: CCN1CC2(C1)CN(Cc1ccc(Nc3nc(NCCCN)nc4c3ncn4C3CCCC3)cc1)C2 [Compound 20]
IC50 (µM): 0.015

compound: CN(C)CCCNc1nc(Nc2ccc(C(=O)N3CCOCC3)nc2)c2ncn(C3CCCC3)c2n1 [Compound 179]
IC50 (µM): 0.09

compound: NC1CCC(Nc2nc(Nc3ccc(CN4CCNCC4)cc3)c3ncn(C4CCCC4)c3n2)CC1 (stereo not shown) [Compound 2]
IC50 (µM): 0.015

compound: CN1CC2(C1)CN(c1ccc(Nc3nc(NC4CCC(O)CC4)nc4c3ncn4C3CCCC3)cc1)C2 (stereo not shown) [Compound 7]
IC50 (µM): 0.026

compound: NCCCCCCNc1nc(Nc2ccc(CN3CCOCC3)cc2)c2ncn(C3CCCC3)c2n1 [Compound 38]
IC50 (µM): 0.021

Now look at this one.
Q. Determine from records and report IC50 for NC1CCC(Nc2nc(Nc3ccc(N4CC5(COC5)C4)cc3)c3ncn(C4CCCC4)c3n2)CC1 (stereo not shown) [Compound 272]
A. 0.013

The origin of these recorded values is patent US11028087B2.
